The entries below are paired with their reported activation.
# TARGET OF ASSAY: G-protein coupled receptor 151 (Homo sapiens) (UniProt Q8TDV0)
# Sequence (Q8TDV0 whole entry, looked up): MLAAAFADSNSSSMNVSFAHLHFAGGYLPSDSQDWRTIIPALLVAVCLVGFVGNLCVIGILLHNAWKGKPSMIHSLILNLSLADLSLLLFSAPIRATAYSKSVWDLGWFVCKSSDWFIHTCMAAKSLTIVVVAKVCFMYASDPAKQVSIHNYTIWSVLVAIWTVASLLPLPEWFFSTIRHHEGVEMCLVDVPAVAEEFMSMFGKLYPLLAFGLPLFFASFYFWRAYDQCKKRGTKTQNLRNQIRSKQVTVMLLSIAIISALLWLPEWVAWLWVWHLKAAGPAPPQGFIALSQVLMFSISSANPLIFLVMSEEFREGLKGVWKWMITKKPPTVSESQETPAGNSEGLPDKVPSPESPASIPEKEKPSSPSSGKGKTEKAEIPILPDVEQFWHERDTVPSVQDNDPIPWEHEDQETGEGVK
# TEST NAME: activators of human GPR151, primary screen, cell-based, PathHunter beta-arrestin, luminescence (AID 1508602);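 also: 0% = median of compound wells and 100% = cells with positive control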
# CONDITION: PathHunter beta-arrestin GPR151 cells, at 11.2 µM, active compounds read high
Among all 650,000 compounds or so, about 6,800 (1%) were called active. Only a selection was taken, and actives are over-represented in it overall.
Note: unit % is implicit; provide only the numeric part.

Would you please look over these solved cases?
* O=C(Nc1ccncc1NC(=O)c1ccco1)c1ccco1 | 0.598
* CC12c3ccccc3C(c3ccccc31)C1C(=O)N(c3ccc(C(=O)O)cc3)C(=O)C12 (stereo not given) | -0.384
* CC12c3ccccc3C(c3ccccc31)C1C(=O)N(c3cccc(C(F)(F)F)c3)C(=O)C12 (stereo not given) | 1.26
* O=C(NCCc1ccc(N2CCCC2)cc1)c1ccc(F)cc1 | 0.277
* COc1ccccc1NC(=O)CSc1nnc(-c2ccc(O)cc2)o1 | -0.782
* CCOc1ccc(N2C(=O)C3C4c5ccccc5C(C(C)O)(c5ccccc54)C3C2=O)cc1 (stereo not given) | 4.96

What value of measured activation is listed for CC12c3ccccc3C(c3ccccc31)C1C(=O)N(c3cccc(C(=O)O)c3)C(=O)C12 (stereo not given) ?
-0.158

Also, Cc1ccc(N2C(=O)C3C4c5ccccc5C(CO)(c5ccccc54)C3C2=O)cc1 (stereo not given) please.
-0.914

Try CCc1cccc(OCC(=O)Nc2ccc3c(c2)OCCO3)c1 next.
-1.18

Query CC1=C(C(=O)Nc2cccc(F)c2)C(c2ccccn2)C2=C(CCCC2=O)N1 (stereo not given) next
4.99
